Taken from patent US20070117743A1.

- Tested on: DU-145
- METHOD: SRB colorimetric assay of cell growth and viability, DU-145
- Type: cell-based, human
- CONDITION_INFO: 48 hours exposure
- Description: The finality of this assay is to interrupt the growth of a “in vitro” tumor cell culture by means a continued exhibition of the cells to the sample to be testing. […] Cells are seeded in 96 well microtiter plates, at 5×10^3 cells per well in aliquots of 195 μL medium, and they are allowed to attach to the plate surface by growing in drug free medium for 18 hours. […] Optical densities are read on a automated spectrophotometric plate reader at a single wavelength of 490 nm. […]
Where a SMILES comes first, the peptide text is derived from it. Bridges are numbered along the chain shown (N, C = ends). [ ]: non-standard residue; d: D form. The star is where a group is joined. d(aIle) = CC[C@H](C)[C@@H](N)C(=O)O; d(aThr) = C[C@@H](O)[C@@H](N)C(=O)O; Hexanoyl(5-Me) = CC(C)CCCC(=O)*; Orn = NCCC[C@H](N)C(=O)O; Dhb = C/C=C(\N)C(=O)O
READOUT_TYPE: LC50 (concentration causing 50% net cell kill)

# example entries with known answers
COMPOUND	RECORDED_VALUE
C/C=C1\NC(=O)[C@H](Cc2ccccc2)NC(=O)[C@@H](C(C)C)NC(=O)[C@@H]([C@@H](C)CC)NC(=O)[C@H](NC(=O)[C@H](NC(=O)[C@H](CCCN)NC(=O)[C@H]2CCCN2C(=O)[C@H](NC(=O)[C@@H](NC(=O)[C@H](CCC(N)=O)NC(=O)CCCC(C)C)C(C)C)C(C)C)[C@@H](C)CC)[C@@H](C)OC(=O)[C@H](C(C)C)NC1=O [Compound 58, [Gln^12, noD-Val^13]-KF] ({Hexanoyl(5-Me)}-QV[dV][dP][Orn][d(aIle)][d(aThr)][d(aIle)][dV]F[Dhb]V; ester 7-C)	≥ 7.11 µM
C/C=C1\NC(=O)[C@H](Cc2ccccc2)NC(=O)[C@@H](C(C)C)NC(=O)[C@@H]([C@@H](C)CC)NC(=O)[C@H](NC(=O)[C@H](NC(=O)[C@H](CCCN)NC(=O)[C@H]2CCCN2C(=O)[C@H](NC(=O)[C@@H](NC(=O)[C@H](CCCN)NC(=O)CCCC(C)C)C(C)C)C(C)C)[C@@H](C)CC)[C@@H](C)OC(=O)[C@H](C(C)C)NC1=O [Compound 57, [Orn^12, noD-Val^13]-KF] ({Hexanoyl(5-Me)}-[Orn]V[dV][dP][Orn][d(aIle)][d(aThr)][d(aIle)][dV]F[Dhb]V; ester 7-C)	≥ 7.18 µM

Let us examine a further case.
Query: Indicate the recorded LC50 (concentration causing 50% net cell kill) value for this compound: C/C=C1\NC(=O)[C@H](Cc2ccccc2)NC(=O)[C@@H](C(C)C)NC(=O)[C@@H]([C@@H](C)CC)NC(=O)[C@H](NC(=O)[C@H](NC(=O)[C@H](CCCN)NC(=O)[C@H]2CCCN2C(=O)[C@H](NC(=O)[C@H](NC(=O)[C@@H](NC(=O)[C@H](NC(=O)CCCC(C)C)C(C)C)[C@@H](C)O)C(C)C)C(C)C)[C@@H](C)CC)[C@@H](C)OC(=O)[C@H](C(C)C)NC1=O [Compound 46, [D-Val^11]-KF]
Response: ≥ 6.77 µM
